These measurements were taken from patent US10227347B2.

Molecular target: HDAC1 (Homo sapiens, UniProt Q13547)
Construct: purchased BPS Bioscience
Sequence (Q13547 whole entry, species assumed): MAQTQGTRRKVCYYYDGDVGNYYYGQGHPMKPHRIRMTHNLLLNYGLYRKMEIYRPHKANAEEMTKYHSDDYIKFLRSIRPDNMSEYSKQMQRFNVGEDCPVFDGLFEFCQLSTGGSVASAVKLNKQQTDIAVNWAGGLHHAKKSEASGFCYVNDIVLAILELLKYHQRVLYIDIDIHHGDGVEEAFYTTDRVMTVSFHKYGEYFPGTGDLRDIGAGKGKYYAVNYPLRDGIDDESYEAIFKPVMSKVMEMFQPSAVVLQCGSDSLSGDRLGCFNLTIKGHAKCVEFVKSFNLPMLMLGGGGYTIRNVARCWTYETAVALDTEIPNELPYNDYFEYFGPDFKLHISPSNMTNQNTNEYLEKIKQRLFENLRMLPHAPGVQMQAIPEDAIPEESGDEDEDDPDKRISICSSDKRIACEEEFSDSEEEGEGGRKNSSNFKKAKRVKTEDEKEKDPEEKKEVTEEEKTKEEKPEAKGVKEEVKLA
Experiment: In vitro HDAC1 enzymatic activity inhibition (Lys-Ac-AMC substrate)
Type: biochemical
Settings: Table 1, graded; read-out: HDAC1 IC50
Please provide measured IC50 for the entries that follow.

(Q) I am curious: what IC50 value has been reported for `CN(Cc1nc2c(N3CCOCC3)nc(-c3ccc4c(c3)OCCO4)nc2n1C)c1ncc(C(=O)NO)cn1` ?
(A) < 1 nM

(Q) I am curious: what IC50 value has been reported for `CCCCN(Cc1nc2c(N3CCOCC3)nc(-c3ccc(NC)cc3)nc2n1C)c1ncc(C(=O)NO)cn1` ?
(A) 1000 to 10000 nM

(Q) I am curious: what IC50 value has been reported for `COc1ccc(-c2nc(N3CCOCC3)c3nc(CN(C)c4ncc(C(=O)NO)cn4)n(C4CCCC4)c3n2)cc1` ?
(A) 100 to 1000 nM

(Q) I am curious: what IC50 value has been reported for `CN(Cc1nc2c(N3CCOCC3)nc(-c3cccc(CO)c3)nc2n1C)c1ncc(C(=O)NO)cn1` ?
(A) < 100 nM

====

Biological target: PI3Kα (Homo sapiens, UniProt P42336)
Construct: purchased Invitrogen PV4788
Sequence (P42336 whole entry, species assumed): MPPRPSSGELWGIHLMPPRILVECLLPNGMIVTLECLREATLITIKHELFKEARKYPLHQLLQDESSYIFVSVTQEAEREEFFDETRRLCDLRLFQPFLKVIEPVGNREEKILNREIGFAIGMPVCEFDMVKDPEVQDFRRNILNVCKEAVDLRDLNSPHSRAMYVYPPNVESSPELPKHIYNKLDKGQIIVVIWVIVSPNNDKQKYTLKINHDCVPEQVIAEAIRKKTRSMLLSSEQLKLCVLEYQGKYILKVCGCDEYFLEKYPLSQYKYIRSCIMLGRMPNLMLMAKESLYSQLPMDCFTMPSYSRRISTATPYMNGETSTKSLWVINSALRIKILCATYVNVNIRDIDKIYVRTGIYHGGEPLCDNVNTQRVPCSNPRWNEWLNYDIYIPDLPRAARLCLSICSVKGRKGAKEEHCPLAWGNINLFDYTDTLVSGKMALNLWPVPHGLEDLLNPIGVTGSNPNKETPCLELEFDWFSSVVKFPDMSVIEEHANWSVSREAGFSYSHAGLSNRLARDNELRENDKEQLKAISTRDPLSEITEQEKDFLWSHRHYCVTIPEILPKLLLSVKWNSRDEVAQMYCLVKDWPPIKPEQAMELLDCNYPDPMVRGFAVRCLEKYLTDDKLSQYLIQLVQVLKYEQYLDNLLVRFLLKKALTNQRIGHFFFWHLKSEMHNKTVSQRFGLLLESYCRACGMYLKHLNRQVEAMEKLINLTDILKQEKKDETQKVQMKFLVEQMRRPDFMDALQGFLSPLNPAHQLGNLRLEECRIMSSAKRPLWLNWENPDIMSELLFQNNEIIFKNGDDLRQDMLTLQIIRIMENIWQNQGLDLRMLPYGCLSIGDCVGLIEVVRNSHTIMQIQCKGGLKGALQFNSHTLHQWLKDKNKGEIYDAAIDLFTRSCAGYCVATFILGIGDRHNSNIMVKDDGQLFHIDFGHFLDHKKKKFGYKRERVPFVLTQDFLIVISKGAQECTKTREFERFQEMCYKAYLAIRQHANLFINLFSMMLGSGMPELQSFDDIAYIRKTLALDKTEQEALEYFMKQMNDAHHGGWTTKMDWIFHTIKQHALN
Sequence (P27986 whole entry partner, species assumed): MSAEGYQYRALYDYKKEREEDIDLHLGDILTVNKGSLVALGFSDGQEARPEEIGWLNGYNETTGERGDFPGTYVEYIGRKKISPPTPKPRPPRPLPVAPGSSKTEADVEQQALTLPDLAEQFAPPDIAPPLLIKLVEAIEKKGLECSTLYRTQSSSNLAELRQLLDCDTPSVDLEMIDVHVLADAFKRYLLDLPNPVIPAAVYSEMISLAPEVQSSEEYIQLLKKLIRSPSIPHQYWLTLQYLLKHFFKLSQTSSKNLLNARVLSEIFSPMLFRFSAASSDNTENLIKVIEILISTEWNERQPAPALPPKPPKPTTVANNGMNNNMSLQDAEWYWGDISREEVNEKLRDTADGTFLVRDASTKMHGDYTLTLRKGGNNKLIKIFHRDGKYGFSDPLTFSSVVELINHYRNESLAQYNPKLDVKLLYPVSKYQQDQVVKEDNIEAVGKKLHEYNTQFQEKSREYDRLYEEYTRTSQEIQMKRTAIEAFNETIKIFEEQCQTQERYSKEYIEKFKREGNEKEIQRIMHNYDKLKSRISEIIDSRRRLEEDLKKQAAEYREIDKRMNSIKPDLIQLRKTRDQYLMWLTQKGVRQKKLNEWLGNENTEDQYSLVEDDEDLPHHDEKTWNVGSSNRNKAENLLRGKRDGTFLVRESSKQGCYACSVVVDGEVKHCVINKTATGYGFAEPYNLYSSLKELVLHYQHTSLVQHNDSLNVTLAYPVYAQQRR
Assay: PI3Kα activity inhibition (Kinase-Glo)
Assay type: biochemical
Settings: Table 1, graded; read-out: PI3Kα IC50
ASSAY READOUT: IC50

(Q) I am curious: what IC50 value has been reported for `CN(Cc1nc2c(N3CCOCC3)nc(-c3ccc(C(F)(F)F)cc3)nc2n1C)c1ncc(C(=O)NO)cn1` ?
(A) > 10 µM

(Q) I am curious: what IC50 value has been reported for `CN(Cc1nc2c(N3CCOCC3)nc(-c3cncnc3)nc2n1C)c1ncc(C(=O)NO)cn1` ?
(A) < 0.1 µM

(Q) I am curious: what IC50 value has been reported for `CN(Cc1nc2c(N3CCOCC3)nc(-c3ccc(O)cc3)nc2n1C)c1ncc(C(=O)NO)cn1` ?
(A) > 10 µM

(Q) I am curious: what IC50 value has been reported for `CN(C)CCn1cc(-c2nc(N3CCOCC3)c3nc(CN(C)c4ncc(C(=O)NO)cn4)n(C)c3n2)cn1` ?
(A) 1 to 10 µM

(Q) I am curious: what IC50 value has been reported for `CN(Cc1nc2c(N3CCOCC3)nc(-c3ccccc3NS(C)(=O)=O)nc2n1C)c1ncc(C(=O)NO)cn1` ?
(A) > 10 µM

(Q) I am curious: what IC50 value has been reported for `CC(C)=CCN(CC=C(C)C)c1ccc(-c2nc(N3CCOCC3)c3nc(CN(C)c4ncc(C(=O)NO)cn4)n(C)c3n2)cc1` ?
(A) > 10 µM

(Q) I am curious: what IC50 value has been reported for `COc1ccc(-c2nc(N3CCOCC3)c3nc(CN(C)c4ncc(C(=O)NO)cn4)n(C4CCCC4)c3n2)cc1` ?
(A) > 10 µM

(Q) I am curious: what IC50 value has been reported for `CN(Cc1nc2c(N3CCOCC3)nc(-c3cccc(NS(=O)(=O)CCCl)c3)nc2n1C)c1ncc(C(=O)NO)cn1` ?
(A) > 10 µM

(Q) I am curious: what IC50 value has been reported for `CCn1c(CN(C)c2ncc(C(=O)NO)cn2)nc2c(N3CCOCC3)nc(-c3ccc(OC)nc3)nc21` ?
(A) 1 to 10 µM

(Q) I am curious: what IC50 value has been reported for `CN(Cc1nc2c(N3CCOCC3)nc(-c3ccc(NS(=O)(=O)CCCCl)cc3)nc2n1C)c1ncc(C(=O)NO)cn1` ?
(A) > 10 µM

(Q) I am curious: what IC50 value has been reported for `CN(Cc1nc2c(N3CCOCC3)nc(-c3ccc4[nH]ncc4c3)nc2n1C)c1ncc(C(=O)NO)cn1` ?
(A) 1 to 10 µM

(Q) I am curious: what IC50 value has been reported for `CCCn1c(CN(C)c2ncc(C(=O)NO)cn2)nc2c(N3CCOCC3)nc(-c3ccc(N)cc3)nc21` ?
(A) > 10 µM

(Q) I am curious: what IC50 value has been reported for `CCCN(Cc1nc2c(N3CCOCC3)nc(-c3ccc4[nH]ncc4c3)nc2n1C)c1ncc(C(=O)NO)cn1` ?
(A) > 10 µM

(Q) I am curious: what IC50 value has been reported for `COc1cc(-c2nc(N3CCOCC3)c3nc(CN(C)c4ncc(C(=O)NO)cn4)n(C)c3n2)cc(OC)c1OC` ?
(A) > 10 µM

(Q) I am curious: what IC50 value has been reported for `CN(Cc1nc2c(N3CCOCC3)nc(-c3cccc(O)c3)nc2n1C)c1ncc(C(=O)NO)cn1` ?
(A) > 10 µM
